Entries and their measured self-cleavage follow.
B1: CPEB3 Ribozyme (parent)
chain: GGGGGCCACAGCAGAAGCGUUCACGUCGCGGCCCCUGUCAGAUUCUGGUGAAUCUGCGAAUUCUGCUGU

- Variants of: B1
- Experiment Summary: self-cleavage, relative activity (ratio to wild type); higher = more cleavage; co-transcriptional

Below, 2 variants whose answers are already recorded.
> print(dat)
                              item.sequence     observable  experimental.result
1  GGGGGCCACAGCAGUAGCGUUCACGUCGCGGCCCCUGUCAGAUUCUGGUGAAUCUGAGAAUUCUGCUGU [A15U C57A]  self-cleavage                0.298
2  GGGGGCCACAGCAGAAGCUUUCACGUCGCGGCCCCUGUCAGAUUCUGGUGAAUCUACGAAUUCUGCUGU [G19U G56A]  self-cleavage                0.301

Exercise: Need self-cleavage of GGGGGCCACAGCAGAAGCGUUCACGUCGCGGCCCCUGUCAGAUUCUGGUGAAUCAGCGAUUUCUGCUGU [U55A A60U] , thanks.
Key: 0.298
